- Tested on: BV-2
- assayExplanation: Cytotoxicity against mouse BV2 cells assessed as cell viability by MTT assay
- Assay type: cell-based
measurementKind: Activity

Some molecules with recorded Activity:
1) C[C@H](CC[C@@H](O)C(C)(C)O)[C@H]1CC[C@@]2(C)C3=C(C[C@H](O)[C@]12C)[C@@]1(C)C[C@@H](OC(=O)CC(C)(O)CC(=O)O)[C@H](O)C(C)(C)[C@@H]1CC3 (stereo not given in full)	Non-toxic
2) CC(C)(O)[C@H](O)CC[C@@H](CO)[C@H]1CC[C@@]2(C)C3=C(C[C@H](O)[C@]12C)[C@@]1(C)C[C@@H](OC(=O)C[C@@](C)(O)CC(=O)O)[C@H](O)C(C)(C)[C@@H]1CC3	Non-toxic
3) CC(C)(O)[C@H](O)CC[C@@H](CO)[C@H]1CC[C@@]2(C)C3=C(C[C@H](O)[C@]12C)[C@@]1(C)C[C@@H](O)[C@H](OC(=O)C[C@@](C)(O)CC(=O)O)C(C)(C)[C@@H]1CC3	Non-toxic
4) COC(=O)CNC(=O)CC(C)(O)CC(=O)O[C@H]1[C@H](O)C[C@]2(C)C3=C(CC[C@H]2C1(C)C)[C@]1(C)CC[C@H]([C@H](C)CC[C@@H](O)C(C)(C)O)[C@@]1(C)[C@@H](O)C3 (stereo not given in full)	Toxic
5) C[C@H](CC[C@@H](O)C(C)(C)O)[C@H]1CC[C@@]2(C)C3=C(CC(=O)[C@]12C)[C@@]1(C)C[C@@H](O)[C@H](O)C(C)(C)[C@@H]1CC3	Non-toxic
6) CC(C)(O)[C@H](O)CC[C@@H](CO)[C@H]1CC[C@]2(C)[C@]1(C)[C@@H](O)C=C1[C@]23O[C@H]3C[C@H]2C(C)(C)[C@@H](O)[C@H](O)C[C@]12C	Non-toxic
7) CC(C)(O)[C@H](O)CC[C@@H](CO)[C@H]1CC[C@@]2(C)C3=C(C[C@H](O)[C@]12C)[C@@]1(C)C[C@@H](O)[C@H](O)C(C)(C)[C@@H]1CC3=O	Non-toxic
8) CC(C)(O)[C@H](O)CC[C@@H](CO)[C@H]1CC[C@@]2(C)C3=CC[C@H]4C(C)(C)[C@@H](O)[C@H](O)C[C@]4(C)C3=C[C@H](O)[C@]12C	Toxic
9) COC(=O)CNC(=O)CC(C)(O)CC(=O)O[C@@H]1C[C@]2(C)C3=C(CC[C@H]2C(C)(C)[C@H]1O)[C@]1(C)CC[C@H]([C@H](CO)CC[C@@H](O)C(C)(C)O)[C@@]1(C)[C@@H](O)C3 (stereo not given in full)	Toxic

Alright, here's another molecule for you.
Query string: Record lookup: for BV-2, what Activity belongs to COC(=O)CNC(=O)CC(C)(O)CC(=O)O[C@@H]1C[C@]2(C)C3=C(CC[C@H]2C(C)(C)[C@H]1O)[C@]1(C)CC[C@H]([C@H](C)CC[C@@H](O)C(C)(C)O)[C@@]1(C)[C@@H](O)C3 (stereo not given in full) ?
Result string: Toxic
